System: Tyrosine-protein kinase ABL1 (Homo sapiens), P00519 [Y253F]
Conditions: at 0.1 µM
Entry flag: rule met if inhibition reaches 3%; rule not met if it does not.

Field: example entries. Status: answers known.
Given the entry CN(C)CCCn1c(-c2nonc2N)nc2cnccc21 , answer whether its inhibition meets or surpasses 3%.
rule not met

inhibition >= 3% for NS(=O)(=O)c1cccc(Nc2cc(-c3ccc(F)cc3)n[nH]2)c1 ?
rule met

Assess whether reported inhibition for CCOc1nccc2c1nc(-c1nonc1N)n2CC sits at 3% or higher.
rule not met

In plain terms: is recorded inhibition at least 3% for CN(C)C(=O)O[C@H]1CN[C@H](C#Cc2cc3ncnc(Nc4ccc(OCc5cccc(F)c5)c(Cl)c4)c3s2)C1 ?
rule met

Continuing:
Evaluate COc1cc(Nc2nccc(-c3cnn4ncccc34)n2)cc(OC)c1 : inhibition at minimum 3%?
rule met

Reported inhibition reaches at least 3% for CN1CCN(C(=O)c2ccc(NC(=O)Nc3ccc(N(C)c4ccnc(Nc5ccc(CS(C)(=O)=O)cc5)n4)cc3)cc2)CC1 ?
rule met

For this molecule, is measured inhibition 3% or higher? CCCN1CCCC(c2ccc(Nc3nc(Nc4cc(F)ccc4C(N)=O)c4cc[nH]c4n3)c(OC)c2)C1 (stereo not given)
rule met

Could you verify whether the entry N#Cc1cccc(Nc2nccc(-c3cnn4ncccc34)n2)c1 shows inhibition of no less than 3%?
rule met

hey, is inhibition for this one >= 3%? CC(C)c1ccc2c(c1)NC(=O)/C2=N/Nc1ccc(S(N)(=O)=O)cc1
rule met

Reported inhibition reaches at least 3% for Oc1cccc(-c2nc(-c3ccccc3)[nH]c2-c2ccncc2)c1 ?
rule met

Threshold query (inhibition >= 3%) on CN(C)c1cc2c(Nc3ccc4c(cnn4Cc4ccccc4)c3)ncnc2cn1
rule not met

Record O=C1Nc2ccc(-c3cccnc3)cc2C1=Cc1cc(Br)c(O)c(Br)c1 ; criterion: inhibition no lower than 3%. Met?
rule met

Given the entry O=S(=O)(CCOCc1ccc(-c2ccc3ncnc(Nc4ccc(OCc5cccc(F)c5)c(Cl)c4)c3c2)o1)c1ccccc1 , answer whether its inhibition meets or surpasses 3%.
rule not met

Test whether the molecule NS(=O)(=O)c1cccc(-c2cc3ccncc3cc2OCc2ccccc2)c1 records inhibition of 3% or higher.
rule not met

====

Molecular target: Serine/threonine-protein kinase TBK1 (Homo sapiens) (UniProt Q9UHD2)
Sequence (whole entry): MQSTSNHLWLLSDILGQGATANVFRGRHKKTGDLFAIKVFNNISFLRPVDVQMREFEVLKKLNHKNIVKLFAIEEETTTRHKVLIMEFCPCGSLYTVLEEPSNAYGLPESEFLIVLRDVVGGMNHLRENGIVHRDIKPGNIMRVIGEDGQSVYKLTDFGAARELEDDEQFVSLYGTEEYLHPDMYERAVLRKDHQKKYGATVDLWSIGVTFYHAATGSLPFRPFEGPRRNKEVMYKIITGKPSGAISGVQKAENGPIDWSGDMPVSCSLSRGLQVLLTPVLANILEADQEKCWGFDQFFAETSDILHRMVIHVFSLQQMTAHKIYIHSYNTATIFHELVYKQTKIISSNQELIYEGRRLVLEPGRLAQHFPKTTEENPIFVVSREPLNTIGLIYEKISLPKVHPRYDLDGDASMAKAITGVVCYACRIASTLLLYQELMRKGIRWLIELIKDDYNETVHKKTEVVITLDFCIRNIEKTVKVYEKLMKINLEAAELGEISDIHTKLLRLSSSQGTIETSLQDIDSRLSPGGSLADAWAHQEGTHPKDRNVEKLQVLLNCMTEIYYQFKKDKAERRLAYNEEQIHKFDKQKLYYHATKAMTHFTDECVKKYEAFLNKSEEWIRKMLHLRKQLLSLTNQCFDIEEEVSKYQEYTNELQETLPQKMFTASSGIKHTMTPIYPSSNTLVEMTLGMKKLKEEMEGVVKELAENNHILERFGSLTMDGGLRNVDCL
Details: at 0.1 µM
metric: inhibition
Enter the number, and then the unit.

Reference set, count: 9
Missing value: inhibition, Serine/threonine-protein kinase TBK1 (Homo sapiens) (UniProt Q9UHD2), entry CCn1c(-c2nonc2N)nc2ccc(F)cc21 . Fill in?
5.18%

Kindly state the measured inhibition obtained for O=C1Nc2ccc(-c3cccnc3)cc2C1=Cc1cc(Br)c(O)c(Br)c1 with Serine/threonine-protein kinase TBK1 (Homo sapiens) (UniProt Q9UHD2).
3.66%

Query inhibition on Serine/threonine-protein kinase TBK1 (Homo sapiens) (UniProt Q9UHD2) for CC(C)c1ccc(Nc2nccc(-c3cnn4ncccc34)n2)cc1
1.14%

Reported inhibition for Serine/threonine-protein kinase TBK1 (Homo sapiens) (UniProt Q9UHD2), given NS(=O)(=O)c1ccc(N/N=C2\C(=O)Nc3ccc(Cl)cc32)cc1 ?
2.27%

I'm curious: which inhibition was measured for COc1cc2ncnc(Nc3ccc(C)c(O)c3)c2cc1OC tested on Serine/threonine-protein kinase TBK1 (Homo sapiens) (UniProt Q9UHD2)?
1.88%

Short answer please: inhibition, Serine/threonine-protein kinase TBK1 (Homo sapiens) (UniProt Q9UHD2), entry c1ccc(Cc2nc3ccc(Nc4ncnc5ccccc45)cc3[nH]2)cc1
3.57%

Record Cc1ccc(C(=O)NC2CC2)cc1-c1ccc2[nH]ncc2c1 : what is its inhibition with Serine/threonine-protein kinase TBK1 (Homo sapiens) (UniProt Q9UHD2)?
-3.58%

Recorded inhibition for O=S(=O)(CCOCc1ccc(-c2ccc3ncnc(Nc4ccc(OCc5cccc(F)c5)c(Cl)c4)c3c2)o1)c1ccccc1 with Serine/threonine-protein kinase TBK1 (Homo sapiens) (UniProt Q9UHD2), please?
0.12%

Form entry - test system: Serine/threonine-protein kinase TBK1 (Homo sapiens) (UniProt Q9UHD2); read-out: inhibition; molecule: COc1ccc(-c2nn3ncccc3c2-c2ccnc(Nc3cccc(C(F)(F)F)c3)n2)cc1;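 note: values are the mean TBK1 inhibition, taken from the GSK PKIS screening data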
0.76%

Lab note: next molecule to report on.
Give recorded inhibition with Serine/threonine-protein kinase TBK1 (Homo sapiens) (UniProt Q9UHD2) for the following molecule: NS(=O)(=O)c1ccc(NC=C2C(=O)Nc3ccc4ncsc4c32)cc1
13.4%

====

Test system: Tyrosine-protein kinase ABL1 (Homo sapiens), P00519 [M351T]
Details: at 1 µM
metric: inhibition (%)
Expressed in %, but write only the number.

What inhibition value was documented for this molecule, CCn1c(-c2nonc2N)nc2c(C#CC(C)(C)O)nc(OCCNC)cc21 ?
3.61

Please look up its inhibition: COc1cc2ncn(-c3cc(OCc4ccccc4S(C)(=O)=O)c(C#N)s3)c2cc1OC
49.6

Return reported inhibition; argument: COc1cccc(-n2nc(C)c3c(N/N=C(\C)c4ccncc4)ncnc32)c1
4.06

Continuing:
Using the record for Cc1cc(Cl)cc2c1NC(=O)C2=NNc1ccc(S(N)(=O)=O)cc1 , report its inhibition.
6.65

====

Biological target: Insulin receptor-related protein (Homo sapiens) (UniProt P14616);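 note: mean percent inhibition of IRR, reported within the GSK PKIS screening panel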
Sequence (P14616 27-742 limits assumed): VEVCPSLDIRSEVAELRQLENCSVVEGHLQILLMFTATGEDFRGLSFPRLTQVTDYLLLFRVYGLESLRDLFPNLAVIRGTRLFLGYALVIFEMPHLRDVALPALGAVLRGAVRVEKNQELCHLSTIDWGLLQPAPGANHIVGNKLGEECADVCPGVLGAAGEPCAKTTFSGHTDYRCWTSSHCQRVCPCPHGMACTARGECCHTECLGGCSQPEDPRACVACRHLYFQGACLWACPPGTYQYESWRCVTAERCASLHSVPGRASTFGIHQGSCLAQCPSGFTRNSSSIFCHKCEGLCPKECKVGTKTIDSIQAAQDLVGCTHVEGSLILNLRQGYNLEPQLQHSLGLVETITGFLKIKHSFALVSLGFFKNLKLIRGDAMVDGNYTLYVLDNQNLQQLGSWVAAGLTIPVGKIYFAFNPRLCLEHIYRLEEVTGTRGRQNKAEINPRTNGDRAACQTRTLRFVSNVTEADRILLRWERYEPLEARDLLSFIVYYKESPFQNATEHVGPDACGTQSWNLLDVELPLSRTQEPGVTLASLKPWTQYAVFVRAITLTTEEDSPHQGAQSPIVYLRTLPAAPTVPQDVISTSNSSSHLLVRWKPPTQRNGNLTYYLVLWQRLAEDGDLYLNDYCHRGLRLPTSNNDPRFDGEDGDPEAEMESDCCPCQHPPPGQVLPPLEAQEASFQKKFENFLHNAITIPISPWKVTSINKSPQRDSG
Sequence (P14616 747-1297 limits assumed): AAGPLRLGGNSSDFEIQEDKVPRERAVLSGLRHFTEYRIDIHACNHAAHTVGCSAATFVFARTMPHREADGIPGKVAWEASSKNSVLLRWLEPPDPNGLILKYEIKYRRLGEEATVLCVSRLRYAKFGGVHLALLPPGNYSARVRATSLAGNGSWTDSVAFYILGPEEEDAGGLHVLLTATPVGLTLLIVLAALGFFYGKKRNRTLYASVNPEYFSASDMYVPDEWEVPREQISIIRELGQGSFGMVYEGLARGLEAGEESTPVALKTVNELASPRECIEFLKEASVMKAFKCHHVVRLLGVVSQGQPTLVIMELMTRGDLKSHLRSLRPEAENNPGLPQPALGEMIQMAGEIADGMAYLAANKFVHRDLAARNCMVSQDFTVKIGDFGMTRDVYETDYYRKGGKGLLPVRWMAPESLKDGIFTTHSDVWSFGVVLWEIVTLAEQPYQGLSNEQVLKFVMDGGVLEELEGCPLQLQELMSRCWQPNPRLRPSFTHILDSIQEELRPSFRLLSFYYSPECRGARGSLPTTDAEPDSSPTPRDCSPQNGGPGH
Details: at 0.1 µM
metric: inhibition (%)
Please reply with the bare figure in % and do not write the unit itself.

Recorded inhibition, per entry:
Look up inhibition for this compound: CCS(=O)(=O)c1ccc(OC)c(Nc2ncc(-c3cccc(OC)c3)o2)c1
3.08

Entry COc1cccc(-n2ncc3c(N/N=C/c4ccc(S(C)(=O)=O)cc4)ncnc32)c1 has what inhibition?
0.2

I'd like to know its inhibition. The compound in question is CCn1c(-c2nonc2N)nc2c(C#CC(C)(C)O)nc(OCCNC)cc21
0.83

Suppose we examine the compound COC(=O)Nc1nc2cc(Oc3ccc(NC(=O)Nc4cccc(Br)c4)cc3)ccc2[nH]1 ; what inhibition value has been reported?
1.82

inhibition lookup needed for CC(C)c1ccc2c(c1)NC(=O)/C2=N/Nc1ccc(S(N)(=O)=O)cc1 , thanks.
-1.32

Others:
Please give the measured inhibition for this compound: NC(=O)c1cccc(Nc2nccc(Nc3cccc(F)c3)n2)c1
-0.57

GET /values?readout=inhibition&item= c1ccc(Nc2ncc(-c3ccccc3)o2)cc1
2.31

I'd like to know its inhibition. The compound in question is Oc1cccc(-c2nc(-c3ccccc3)[nH]c2-c2ccncc2)c1
2.79

Tell me the measured inhibition of COC(=O)c1ccc2c(c1)C(=Cc1cc(Br)c(O)c(Br)c1)C(=O)N2 , please.
1.56

I am curious: what inhibition value has been reported for N#Cc1c(NC(=O)c2ccccc2F)sc2c1CCCC2 ?
-1.06

Using the record for OCc1ccc(-c2nc(-c3ccccn3)c(-c3ccc4c(c3)OCO4)[nH]2)cc1 , report its inhibition.
4.43

====

Target: Calcium/calmodulin-dependent protein kinase type II subunit alpha (Homo sapiens);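 note: reported value is a mean percent inhibition of CAMK2A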
Details: at 1 µM
# Lookup of reported inhibition keyed by entry
Express your answer in %, writing the number without its unit.

Given Cc1nc(-c2ccccc2)n2nc(NCCCN3CCOCC3)ncc12 , state its recorded inhibition.
3.41

Would you kindly share the measured inhibition for C[C@@H](Oc1cc(-n2cnc3ccc(OC[C@@H](O)CO)cc32)sc1C(N)=O)c1ccccc1Cl ?
2.24

Consider the compound NS(=O)(=O)c1ccc(-c2cc3ccncc3cc2OCc2ccccc2)cc1 and give its measured inhibition.
2.94

What value of measured inhibition is listed for c1ccc(Cc2nc3ccc(Nc4ncnc5ccccc45)cc3[nH]2)cc1 ?
2

---
Field request: inhibition | item: FC(F)(F)c1ccc(-c2nn3ncccc3c2-c2ccnc(Nc3ccc4c(c3)OCCO4)n2)cc1
-2.19

Find the recorded inhibition belonging to N#Cc1cccc(Nc2nccc(-c3cnn4ncccc34)n2)c1 and report it.
35.4

// returns reported inhibition for input CCS(=O)(=O)c1ccc(OC)c(Nc2ncc(-c3cccc(OC)c3)o2)c1
6.74

So what does the record say about inhibition for CCOc1nccc2c1nc(-c1nonc1N)n2CC ?
2.47

Param item = Cc1ccc(NC(=O)CC2CC2)cc1-c1ccc(C(=O)NCC2CC2)cc1 ; retrieve measured inhibition.
2.95

Sample NS(=O)(=O)c1ccc(N/N=C2\C(=O)Nc3ccc(Cl)cc32)cc1 — what was its inhibition?
4.05

Which inhibition is reported for this compound? CN(c1ccc(NC(=O)Nc2ccc(OC(F)(F)F)cc2)cc1)c1ccnc(Nc2cccc(S(N)(=O)=O)c2)n1
-1.5

Consider the compound shown here: NC(=O)c1sc(-n2cnc3ccccc32)cc1OCc1ccccc1Br What is its recorded inhibition?
3.18

Could you share which inhibition value was measured for COc1cc2ncnc(Nc3ccc4c(cnn4Cc4ccccc4)c3)c2cc1OC ?
0.24

So what's the measured inhibition for this one? CS(=O)(=O)CCNCc1nc(-c2ccc3ncnc(Nc4ccc(OCc5cccc(C(F)(F)F)c5)cc4)c3c2)cs1
2.45

Consider the compound CC(C)c1ccc2c(c1)NC(=O)/C2=N/Nc1ccc(S(N)(=O)=O)cc1 and give its measured inhibition.
0.01

Could you tell me which inhibition is on file for Nc1ccc(C#Cc2cncnc2Nc2ccc(OCc3cccc(F)c3)c(Cl)c2)cc1 ?
-1.06
